Entry source: PubChem BioAssay (EPA / NIEHS)

- Read-out: Urokinase-type plasminogen activator receptor (uPAR), PLAUR (gene 5329)
- PROCEDURE_TEXT: BSK_4H_uPAR: BioMAP Diversity Plus: 4H Assay for Urokinase-type plasminogen activator receptor (uPAR) Biomarker Activity (AID 2283030)
- CONDITION_PARAMETERS: primary human endothelial cells (HUVEC); actives raise or lower the signal
The source made the active and inactive calls. How the source made its calls: active means hit-call score of the fitted dose curve at least 0.9, where 1 is the maximum; inactive means score below 0.9.
Answer with one of the outcomes true (1) (active), false (0) (inactive)

Query: recorded result category for `Cc1cc2c(cc1C(F)(F)F)N(C(=O)Nc1ccc(Oc3cccnc3C)nc1)CC2` in this test false (0)

Query: recorded result category for `CN(C)c1ccc(C(=C2C=CC(=[N+](C)C)C=C2)c2ccc(N(C)C)cc2)cc1` in this test true (1)

Query: recorded result category for `CCCCCCCCOc1ccc(C(=O)c2ccccc2)c(O)c1` in this test false (0)

Query: recorded result category for `CC[C@@H]1C[C@H](N(Cc2cc(C(F)(F)F)cc(C(F)(F)F)c2)C(C)=O)c2cc(C(F)(F)F)ccc2N1C(=O)OC(C)C` in this test false (0)

Query: recorded result category for `c1ccc2ccccc2c1` in this test false (0)

Query: recorded result category for `CCCCCCCCCCCO` in this test false (0)

Query: recorded result category for `O=C(O)Cc1cc(I)c(Oc2ccc(O)c(I)c2)c(I)c1` in this test true (1)

Query: recorded result category for `c1ccc2n[nH]nc2c1` in this test false (0)

Query: recorded result category for `O=c1ccc2ccccc2o1` in this test false (0)

Query: recorded result category for `CCCCOC(=O)c1ccc(O)cc1` in this test false (0)

Query: recorded result category for `Cc1c2ccccc2c(C)c2c1ccc1ccccc12` in this test true (1)

Query: recorded result category for `C[C@]12CC[C@@H]3c4ccc(O)cc4CC[C@H]3[C@@H]1CCC2=O` in this test false (0)
